target: recombinant human PARP (Homo sapiens, UniProt P09874); assay: Measurement of PARP enzymatic activity (transfer of radiolabeled ADP-ribose from NAD+ to protein acceptor); format: biochemical; conditions: Table 7; read-out: PARP IC50
Sequence (P09874 whole entry): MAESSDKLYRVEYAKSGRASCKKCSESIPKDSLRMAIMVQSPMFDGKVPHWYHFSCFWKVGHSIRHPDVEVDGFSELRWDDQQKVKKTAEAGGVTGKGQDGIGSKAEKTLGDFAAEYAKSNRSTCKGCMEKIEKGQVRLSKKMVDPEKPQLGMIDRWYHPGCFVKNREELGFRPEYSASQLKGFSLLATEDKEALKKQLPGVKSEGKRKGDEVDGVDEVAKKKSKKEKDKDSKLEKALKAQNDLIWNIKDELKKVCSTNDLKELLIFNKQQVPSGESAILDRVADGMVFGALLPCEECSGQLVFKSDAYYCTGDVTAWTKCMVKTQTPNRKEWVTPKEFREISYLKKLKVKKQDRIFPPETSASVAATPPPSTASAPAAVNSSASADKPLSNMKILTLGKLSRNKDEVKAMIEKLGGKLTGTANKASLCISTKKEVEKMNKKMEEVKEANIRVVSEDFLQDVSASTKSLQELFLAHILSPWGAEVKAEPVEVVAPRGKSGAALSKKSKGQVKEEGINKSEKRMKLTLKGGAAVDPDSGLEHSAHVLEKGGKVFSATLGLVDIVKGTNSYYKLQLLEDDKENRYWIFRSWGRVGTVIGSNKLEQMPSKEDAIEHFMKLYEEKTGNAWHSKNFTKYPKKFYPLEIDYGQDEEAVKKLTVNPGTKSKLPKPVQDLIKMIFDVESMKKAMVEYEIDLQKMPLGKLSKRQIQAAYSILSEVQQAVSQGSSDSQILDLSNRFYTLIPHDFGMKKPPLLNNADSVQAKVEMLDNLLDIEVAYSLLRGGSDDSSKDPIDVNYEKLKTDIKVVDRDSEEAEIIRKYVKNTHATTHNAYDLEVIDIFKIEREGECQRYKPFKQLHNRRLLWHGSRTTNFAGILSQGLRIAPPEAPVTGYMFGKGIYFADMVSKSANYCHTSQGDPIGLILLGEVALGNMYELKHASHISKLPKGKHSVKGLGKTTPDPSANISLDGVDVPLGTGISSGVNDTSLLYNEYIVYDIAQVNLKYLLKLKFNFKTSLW
Quick reference: IC50 of the listed items.
Just the number in µM, nothing appended.

| compound | IC50, µM |
| --- | --- |
| COc1ccc2c(c1)[nH]c1c3c(c4c(c12)C(=O)NC4=O)CCC3 [Compound 14a] | 0.224 |

Attention now shifts to the item below.
**Q:** For COc1cccc2[nH]c3c4c(c5c(c3c12)C(=O)NC5=O)CCC4 [Compound 14b] , what is its reported IC50?
**A:** 0.019

---

Quick reference: pIC50 of the listed items.
target: recombinant human PARP (Homo sapiens); assay: Measurement of PARP enzymatic activity (transfer of radiolabeled ADP-ribose from NAD+ to protein acceptor); assay type: biochemical; conditions: Table 4; read-out: PARP IC50
On this scale, pIC50 is minus log10 of a concentration expressed in M (mol/L).

See these solved cases before continuing.
| line_notation | pIC50 |
| --- | --- |
| O=C1NC(=O)c2c1c1c(c3[nH]c4ncccc4c23)CCC1 | 8.52 |
| O=c1[nH][nH]c(=O)c2c1c1c(c3[nH]ccc32)CCC1 | 5.74 |

**Q:** Form: Entry = O=C1NC(=O)c2c1c1c(c3[nH]cc(Br)c23)CCC1 | System = recombinant human PARP (Homo sapiens) | pIC50 = ____
**A:** 8.30

**Q:** Here is the next compound: N#Cc1c[nH]c2c3c(c4c(c12)C(=O)NC4=O)CCC3
**A:** 8.22

---

target: recombinant human PARP (Homo sapiens, UniProt P09874); test: Measurement of PARP enzymatic activity (transfer of radiolabeled ADP-ribose from NAD+ to protein acceptor); assay type: biochemical; conditions: Table 2; read-out: PARP IC50
quantity: pIC50
On this scale, pIC50 is minus log10 of a concentration expressed in M (mol/L).

See these solved cases before continuing.
| molecule | numeric_result |
| --- | --- |
| CN(CC(=O)O)CC(=O)c1ccc2[nH]c3c4c(c5c(c3c2c1)C(=O)NC5=O)CCC4 | 8.10 |
| COc1ccc2[nH]c3c4c(c5c(c3c2c1)C(=O)NC5=O)CCC4 | 7.49 |
| O=C(NCC1CCCO1)c1ccc2[nH]c3c4c(c5c(c3c2c1)C(=O)NC5=O)CCC4 (centres unmarked) | 7.85 |
| CC(C)(C)OC(=O)[C@@H]1CCCN1C(=O)CCC(=O)c1ccc2[nH]c3c4c(c5c(c3c2c1)C(=O)NC5=O)CCC4 | 8.15 |
| CN(C)CCCNC(=O)c1ccc2[nH]c3c4c(c5c(c3c2c1)C(=O)NC5=O)CCC4 | 7.48 |
| O=C1NC(=O)c2c1c1c(c3[nH]c4ccc(CNS(=O)(=O)c5ccccc5)cc4c23)CCC1 | 7.41 |
| O=C(O)c1ccc2[nH]c3c4c(c5c(c3c2c1)C(=O)NC5=O)CCC4 | 7.07 |

**Q:** For O=C1NC(=O)c2c1c1c(c3[nH]c4ccc(CN5CCCC5)cc4c23)CCC1 , what is its reported pIC50?
**A:** 7.46

---

target: recombinant human PARP (Homo sapiens, UniProt P09874); assay: Measurement of PARP enzymatic activity (transfer of radiolabeled ADP-ribose from NAD+ to protein acceptor); type: biochemical; conditions: PARP IC50 (nM), Table 8
Quick reference: IC50 of the listed items.
Phrase the answer as number then unit, nothing more needed.

See these solved cases before continuing.
| compound | assay_target | result |
| --- | --- | --- |
| O=C(NCCCn1ccnc1)Oc1ccc2[nH]c3c4c(c5c(c3c2c1)C(=O)NC5=O)CCC4 [Compound 15d] | recombinant human PARP (Homo sapiens, UniProt P09874) | 32 nM |
| CN1CCN(C(=O)Oc2ccc3[nH]c4c5c(c6c(c4c3c2)C(=O)NC6=O)CCC5)CC1 [Compound 15b] | recombinant human PARP (Homo sapiens, UniProt P09874) | 51 nM |
| O=C(NCCCN1CCCC1=O)Oc1ccc2[nH]c3c4c(c5c(c3c2c1)C(=O)NC5=O)CCC4 [Compound 15e] | recombinant human PARP (Homo sapiens, UniProt P09874) | 28 nM |

**Q:** For COCCNC(=O)Oc1ccc2[nH]c3c4c(c5c(c3c2c1)C(=O)NC5=O)CCC4 [Compound 15c] , what is its reported IC50?
**A:** 40 nM

---

biological target: human VEGFR2 cytoplasmic domain (Homo sapiens, UniProt P35968); construct: recombinant human baculovirus-expressed human VEGFR2 cytoplasmic domain; host or cells: baculovirus-expressed; assay: Measurement of VEGFR2 kinase enzymatic activity (time-resolved fluorescence, PLC-γ/GST substrate); assay type: biochemical; details: Table 5
Sequence (P35968 786-1356 limits assumed): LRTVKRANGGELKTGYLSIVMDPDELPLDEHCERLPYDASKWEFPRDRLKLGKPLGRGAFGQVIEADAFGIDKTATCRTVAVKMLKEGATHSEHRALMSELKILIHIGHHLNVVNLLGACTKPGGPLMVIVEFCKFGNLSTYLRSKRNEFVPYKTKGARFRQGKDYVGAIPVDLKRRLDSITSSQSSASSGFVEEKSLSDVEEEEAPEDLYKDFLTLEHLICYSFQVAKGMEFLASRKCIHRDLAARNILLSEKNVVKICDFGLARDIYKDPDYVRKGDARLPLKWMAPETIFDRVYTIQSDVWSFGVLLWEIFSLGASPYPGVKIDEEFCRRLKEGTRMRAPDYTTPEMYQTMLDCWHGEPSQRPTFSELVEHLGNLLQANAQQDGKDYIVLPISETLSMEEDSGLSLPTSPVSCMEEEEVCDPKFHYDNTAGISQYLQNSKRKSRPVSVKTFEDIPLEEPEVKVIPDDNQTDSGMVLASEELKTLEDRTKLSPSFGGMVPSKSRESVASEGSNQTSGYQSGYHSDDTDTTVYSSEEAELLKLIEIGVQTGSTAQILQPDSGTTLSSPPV
quantity: IC50
Phrase the answer as number then unit, nothing more needed.

See these solved cases before continuing.
| compound | assay_target | result |
| --- | --- | --- |
| O=C1NC(=O)c2c1c1ccccc1c1[nH]c3ccccc3c21 [Compound 11e] | human VEGFR2 cytoplasmic domain (Homo sapiens, UniProt P35968) | 0.166 µM |
| O=C1NC(=O)c2c1c1cnccc1c1[nH]c3ccccc3c21 [Compound 12a] | human VEGFR2 cytoplasmic domain (Homo sapiens, UniProt P35968) | 0.235 µM |
| O=C1NCc2c3c(c4[nH]c5ccccc5c4c21)CCC3 [Compound 11a] | human VEGFR2 cytoplasmic domain (Homo sapiens, UniProt P35968) | 0.477 µM |
| Cn1c2ccccc2c2c3c(c4c(c21)CCCC4)C(=O)NC3=O [Compound 11d] | human VEGFR2 cytoplasmic domain (Homo sapiens, UniProt P35968) | 0.778 µM |

Attention now shifts to the item below.
**Q:** For O=C1NC(=O)c2c1c1c(c3[nH]c4ccccc4c23)CCCC1 [Compound 11b] , what is its reported IC50?
**A:** 0.698 µM

---

biological target: recombinant human PARP (Homo sapiens, UniProt P09874); test: Measurement of PARP enzymatic activity (transfer of radiolabeled ADP-ribose from NAD+ to protein acceptor); assay type: biochemical; details: Table 2; read-out: PARP IC50
quantity: IC50 (nM)
Just the number in nM, nothing appended.

See these solved cases before continuing.
| line_notation | numeric_result |
| --- | --- |
| CC(C)(C)OC(=O)Cc1nc(-c2ccc3[nH]c4c5c(c6c(c4c3c2)C(=O)NC6=O)CCC5)cs1 | 29 |
| O=C(NCc1ccc2[nH]c3c4c(c5c(c3c2c1)C(=O)NC5=O)CCC4)c1ccccc1 | 37 |
| CCNC(=O)NCc1nc(-c2ccc3[nH]c4c5c(c6c(c4c3c2)C(=O)NC6=O)CCC5)cs1 | 20 |

Attention now shifts to the item below.
**Q:** Form: Entry = O=C1NC(=O)c2c1c1c(c3[nH]c4ccc(Br)cc4c23)CCC1 | System = recombinant human PARP (Homo sapiens, UniProt P09874) | IC50 = ____
**A:** 25

---

Quick reference: log10 of IC50 of the listed items.
biological target: recombinant human PARP (Homo sapiens); assay: Measurement of PARP enzymatic activity (transfer of radiolabeled ADP-ribose from NAD+ to protein acceptor); format: biochemical; conditions: Table 2; read-out: PARP IC50
Use the decimal logarithm of IC50 (nM).

| compound | numeric_result |
| --- | --- |
| CC(C)C(=O)NCc1nc(-c2ccc3[nH]c4c5c(c6c(c4c3c2)C(=O)NC6=O)CCC5)cs1 | 1.51 |
| CS(=O)(=O)Cc1nc(-c2ccc3[nH]c4c5c(c6c(c4c3c2)C(=O)NC6=O)CCC5)cs1 | 1.58 |
| COC(=O)CCC(=O)NCc1ccc2[nH]c3c4c(c5c(c3c2c1)C(=O)NC5=O)CCC4 | 1.00 |
| NCC(=O)NCc1ccc2[nH]c3c4c(c5c(c3c2c1)C(=O)NC5=O)CCC4 | 1.65 |
| O=C(O)C(=O)c1ccc2[nH]c3c4c(c5c(c3c2c1)C(=O)NC5=O)CCC4 | 0.70 |
| O=C(CCC(=O)c1ccc2[nH]c3c4c(c5c(c3c2c1)C(=O)NC5=O)CCC4)NCCO | 0.95 |
| O=C1NC(=O)c2c1c1c(c3[nH]c4ccc(S(=O)(=O)O)cc4c23)CCC1 | 0.90 |
| CC(=O)Nc1nc(-c2ccc3[nH]c4c5c(c6c(c4c3c2)C(=O)NC6=O)CCC5)c[nH]1 | 1.67 |
| O=C1NC(=O)c2c1c1c(c3[nH]c4ccc(F)cc4c23)CCC1 | 1.59 |
| CN(C)CCNC(=O)c1ccc2[nH]c3c4c(c5c(c3c2c1)C(=O)NC5=O)CCC4 | 1.49 |

**Q:** Form: Entry = CCCCNCc1ccc2[nH]c3c4c(c5c(c3c2c1)C(=O)NC5=O)CCC4 | System = recombinant human PARP (Homo sapiens) | log10 of IC50 = ____
**A:** 1.40

**Q:** Here is the next compound: CCCC(=O)NCc1ccc2[nH]c3c4c(c5c(c3c2c1)C(=O)NC5=O)CCC4
**A:** 1.64

**Q:** Here is the next compound: O=C1NC(O)c2c1c1c(c3[nH]c4ccccc4c23)CCC1 (centres unmarked)
**A:** 2.61

**Q:** Here is the next compound: Nc1nc(-c2ccc3[nH]c4c5c(c6c(c4c3c2)C(=O)NC6=O)CCC5)cs1
**A:** 1.40

**Q:** Here is the next compound: N#Cc1ccc2[nH]c3c4c(c5c(c3c2c1)C(=O)NC5=O)CCC4
**A:** 1.15

**Q:** Here is the next compound: NCCCC(=O)NCc1ccc2[nH]c3c4c(c5c(c3c2c1)C(=O)NC5=O)CCC4
**A:** 1.73

**Q:** Here is the next compound: Cc1nc(-c2ccc3[nH]c4c5c(c6c(c4c3c2)C(=O)NC6=O)CCC5)cs1
**A:** 1.60
